Molecular target: human HSV DNA polymerase UL30 (Human herpesvirus 1 (strain 17) (HHV-1) (Human herpes simplex virus 1))
Assay: biochemical
Details: 625 pM HSV polymerase, 20 minutes at room temperature; read-out: HSV-polymerase Biochemical IC50
pIC50: −log10 of the molar value.
Label 1.0 for high-side pIC50 (at or above 7) and 0.0 for low-side pIC50 (below it).

Cn1nc(C(=O)N[C@H](CO)c2ccc(Cl)cc2)c2c1C(=O)N(CC1(S(=O)(=O)C3CC3)CC1)CC2 [Example 19]
0.0
COc1ncccc1NS(=O)(=O)C1(CN2CCc3c(C(=O)NCc4ccc(C#N)cc4)nn(C)c3C2=O)CC1 [Example 162]
1.0
COC(=O)NCC(C)(C)S(=O)(=O)C1(CN2CCc3c(C(=O)NCc4ccc(C#N)cc4)nn(C)c3C2=O)CC1 [Example 73]
1.0
CN(Cc1ccc(C#N)cc1)C(=O)c1nn(C)c2c1CCN(CC1(S(=O)(=O)C3CC3)CC1)C2=O [Example 6]
0.0
Cn1nc(C(=O)NCc2ccc(Cl)cc2)c2c1C(=O)N(CC1(S(=O)(=O)C(C)(C)[C@H](O)CO)CC1)CC2 [Example 191]
1.0

Reported pIC50 reaches at least 7 for Cn1nc(C(=O)NCc2ccc(C#N)cc2)c2c1C(=O)N(CC1(S(=O)(=O)C(C)(C)COC(F)F)CC1)CC2 [Example 58] ?
1.0

Reported pIC50 reaches at least 7 for COc1cccc(NS(=O)(=O)C2(CN3CCc4c(C(=O)NCc5ccc(C#N)cc5)nn(C)c4C3=O)CC2)n1 [Example 163] ?
1.0

Reported pIC50 reaches at least 7 for Cn1nc(C(=O)NCc2ccc(C#N)cc2)c2c1C(=O)N(CC1(S(C)(=O)=O)CC1)CC2 [Example 21] ?
0.0

Reported pIC50 reaches at least 7 for Cn1nc(C(=O)NCc2ccc(C#N)cc2)c2c1C(=O)N(CC1(S(=O)(=O)C3(COCCN)CC3)CC1)CC2 [Example 96] ?
1.0

Reported pIC50 reaches at least 7 for CCC(=O)Cn1nc(C(=O)NCc2ccc(C#N)cc2)c2c1C(=O)N(CC1(S(=O)(=O)C3CC3)CC1)CC2 [Example 227] ?
1.0

Reported pIC50 reaches at least 7 for Cn1nc(C(=O)NCc2ccc(C#N)cc2)c2c1C(=O)N(CC1(S(=O)(=O)C(C)(C)CNCCO)CC1)CC2 [Example 69] ?
1.0

Reported pIC50 reaches at least 7 for Cn1nc(C(=O)NCc2ccc(C#N)cc2)c2c1C(=O)N(CC1(S(=O)(=O)C3(CCO)CC3)CC1)CC2 [Example 117] ?
1.0

Reported pIC50 reaches at least 7 for Cn1nc(C(=O)NCc2ccc(C#N)cc2)c2c1C(=O)N(CC1(S(=O)(=O)C(C)(C)CN3CC4(COC4)C3)CC1)CC2 [Example 67] ?
1.0

Reported pIC50 reaches at least 7 for Cn1nc(C(=O)NCc2ccc(C#N)cc2)c2c1C(=O)N(CC1(S(=O)(=O)C(C)(C)[C@H](N)CO)CC1)CC2 [Example 213] ?
1.0

Reported pIC50 reaches at least 7 for Cn1nc(C(=O)NCc2ccc(C#N)cc2)c2c1C(=O)N(CC1(S(=O)(=O)C(C)(C)COC3CNC3)CC1)CC2 [Example 102] ?
1.0

Reported pIC50 reaches at least 7 for Cn1nc(C(=O)NCc2ccc(Cl)cc2)c2c1C(=O)N(CC1(S(=O)(=O)C(C)(C)COCCO)CC1)CC2 [Example 88] ?
1.0
